All values here come from the supplement of paper PMC10126150.

test system: ATP; experiment: switch fluorescence ratio, 500 uM ATP over buffer (Cy3 cluster intensity, sum of 5 cycles each) (fold (ratio)); higher = stronger signal-on switching upon ATP binding; sequences stand for … in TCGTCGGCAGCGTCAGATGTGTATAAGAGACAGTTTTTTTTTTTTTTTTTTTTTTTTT…TC; conditions: aptamer strand: ATP DNA aptamer (quencher-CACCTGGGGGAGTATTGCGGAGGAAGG + anchor), 100 nM annealed; ATP concentration: 500 uM;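 note: ATP exposure 15 min at 22 °C before imaging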
I'd appreciate it if you could supply switch fluorescence ratio values for the items below.
Give only the figure.

Input line: May I ask what switch fluorescence ratio has been recorded for TTATGAGTTG ?
Output line: 0.963

Input line: Data request, read-out switch fluorescence ratio, for GGGAGTTTCG
Output line: 1.06

Input line: Request the reported switch fluorescence ratio associated with AAATACGGGA
Output line: 1.17

Input line: What does the data say about its switch fluorescence ratio? Entry: ACAAGTGTTC
Output line: 1

Input line: Using the record for TATGTTGGTG , report its switch fluorescence ratio.
Output line: 0.987

Input line: I have this sequence here, AGGAGACTTA , and I need its recorded switch fluorescence ratio.
Output line: 0.988

Input line: Return reported switch fluorescence ratio; argument: GGCTTGCGGT
Output line: 0.997

Input line: If you can, please state the reported switch fluorescence ratio value of TATTATCGTA .
Output line: 0.993

Input line: Find the recorded switch fluorescence ratio belonging to GAGAGGTGTT and report it.
Output line: 1.06

Input line: Value lookup for switch fluorescence ratio; key = TGATGTAATG
Output line: 1

Input line: # query: switch fluorescence ratio of entry GGTTCCTTA
Output line: 0.994

----------
system: ATP; assay: switch fluorescence ratio, 500 uM ATP over buffer (Cy3 cluster intensity, sum of 5 cycles each) (fold (ratio)); higher = stronger signal-on switching upon ATP binding; sequences stand for … in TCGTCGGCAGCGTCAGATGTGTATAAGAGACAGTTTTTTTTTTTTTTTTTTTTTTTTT…TC; conditions: aptamer strand: ATP DNA aptamer (quencher-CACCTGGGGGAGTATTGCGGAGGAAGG + anchor), 100 nM annealed; ATP concentration: 500 uM;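 note: ATP exposure 15 min at 22 °C before imaging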
parameter-measured: switch fluorescence ratio
No unit in the answer, please; the number alone is enough.

Input line: Given the entry GAAATTCACA , report its measured switch fluorescence ratio.
Output line: 1.04

Input line: So what does the record say about switch fluorescence ratio for TTACTCGTCA ?
Output line: 0.989

Input line: Which value of switch fluorescence ratio has been reported for AAAGAGACGC in the records?
Output line: 1.03

Input line: Consider the sequence GCTAAAGTTC and give its measured switch fluorescence ratio.
Output line: 1.01

Input line: Requested field: switch fluorescence ratio. Item: TTCCCCAGTT
Output line: 1.03

Input line: Need switch fluorescence ratio of GCAGTCCCGT , thanks.
Output line: 1.03

Input line: I have this sequence here, AACGGACAGG , and I need its recorded switch fluorescence ratio.
Output line: 1.27

Input line: Query (sequence): CGGTAAGGCG ; field requested: switch fluorescence ratio
Output line: 0.947

Input line: Entry under review: TGTATAAAAA . Reported switch fluorescence ratio?
Output line: 0.991

Input line: If you can, please state the reported switch fluorescence ratio value of GGGGGTTAGG .
Output line: 1.01

Input line: Sample TCGAGAGATA — what was its switch fluorescence ratio?
Output line: 1

Input line: Any idea what its switch fluorescence ratio is? The sequence is AGGAATTCCG
Output line: 0.992
